Listed here are compounds together with their documented TGI.
Test system: HCC-2998 colon
EXPERIMENT SUMMARY: NCI tumour cell line growth inhibition, 48 h

{"columns": ["COMPOUND", "TESTED ON", "TGI"],
 "data": [
  ["CCN(CC)CCCNc1nccc2c(C)c3c(cc12)c1cnccc1n3C", "HCC-2998 colon", "0.256 µM"],
  ["CC(=O)OC[C@H]1CN(OC(C)=O)C[C@@H](n2cc(C)c(=O)[nH]c2=O)O1", "HCC-2998 colon", "> 100 µM"],
  ["Cc1ccc(CC2(C(=O)O)Cc3ccc(C)cc3C2)cc1 (stereo not given)", "HCC-2998 colon", "> 100 µM"],
  ["COc1ccc2c3c1OC1C(F)C=CC4(O)C(C2)NCCC314 (stereo not given)", "HCC-2998 colon", "12.8 µM"],
  ["O=C(CSCC(=O)N/N=C/c1ccc2c(c1)OCO2)N/N=C/c1ccc2c(c1)OCO2", "HCC-2998 colon", "> 100 µM"]
]}

###

Reported values of TGI for individual entries
System: OVCAR-3 ovarian
EXPERIMENT SUMMARY: NCI tumour cell line growth inhibition, 48 h

{"columns": ["COMPOUND", "TGI"],
 "data": [
  ["O=C1[C@H]2ON(c3ccccc3)C(c3ccc([N+](=O)[O-])cc3)[C@H]2C(=O)N1c1ccc(Cc2ccc(N3C(=O)[C@@H]4ON(c5ccccc5)C(c5ccc([N+](=O)[O-])cc5)[C@@H]4C3=O)cc2)cc1 (stereo partly drawn)", "> 100 µM"],
  ["C=CCN(c1cc(OC)c(NC(C)=O)cc1[N+](=O)[O-])S(C)(=O)=O", "> 100 µM"],
  ["Cc1c2ccccc2c(C2C3C(=O)N(c4ccc(Br)cc4)C(=O)C3ON2C(C(N)=O)c2ccccc2)c2ccccc12 (stereo not drawn)", "12.2 µM"]
]}

###

Test system: RPMI-8226 leukemia
EXPERIMENT SUMMARY: NCI tumour cell line growth inhibition, 48 h
READOUT LABEL: log10 of TGI (log10 of the value in µM)

{"columns": ["SMILES INPUT", "log10 of TGI"],
 "data": [
  ["COc1ccc2c(c1)C(=O)c1c-2n(CCCN(C)C)c(=O)c2ccccc12", -0.27],
  ["Cc1ccc(O)c(C(c2cccc(C(c3cc(C)ccc3O)c3cc(C)ccc3O)c2)c2cc(C)ccc2O)c1", 0.52],
  ["O=c1oc2ccc3ccccc3c2cc1-c1nnc(Nc2ccccc2)s1", 1.71],
  ["O=C1NC(=C(Cl)Cl)/C(=N/S(=O)(=O)N2CCCCC2)N1", 0.63],
  ["C=CCOC(=O)CC[C@H](NC(=O)[C@@H](CCC(F)(F)F)Cc1ccc(O)cc1)C(=O)OCC=C", 1.87],
  ["O=C(CN(/C=C/C(=O)C(F)(F)F)c1ccc(Cl)cc1)c1ccc(Cl)cc1", 1.58]
]}

###

Tested on: T-47D breast
EXPERIMENT SUMMARY: NCI tumour cell line growth inhibition, 48 h
Below, each of the molecules is paired with its reported TGI value.
READOUT LABEL: TGI

{"columns": ["MOLECULE", "READOUT LABEL", "TEST RESULT"],
 "data": [
  ["O=C(O)c1ccccc1C(=O)NCC1S(=O)(=O)OCCOS1(=O)=O", "TGI", "> 100 µM"],
  ["Fc1ccc(-c2c(-c3ccncc3)nc3n2CCS3)cc1", "TGI", "> 25 µM"],
  ["Cc1ccc([N+](=O)[O-])cc1S(=O)(=O)Nc1ccc(C2=NN(S(=O)(=O)c3cc([N+](=O)[O-])ccc3C)C(c3ccccc3)C2)cc1 (centres undefined)", "TGI", "> 100 µM"],
  ["CCOC1OC(COC(=O)C(C)(C)C)C(O)CC1n1cc(C)c(=O)[nH]c1=O (centres undefined)", "TGI", "> 100 µM"]
]}

###

Tested on: KM12 colon
EXPERIMENT SUMMARY: NCI tumour cell line growth inhibition, 48 h
Catalogue of compounds with associated TGI
READOUT LABEL: TGI (µM)

{"columns": ["COMPOUND", "RESULT QUALIFIER", "TEST RESULT"],
 "data": [
  ["COc1ccc2c(c1)Cc1c(NCCN(C)C)ccc(C(=O)NCCCN(C)CCCNC(=O)c3ccc(NCCN(C)C)c4c3Nc3ccc(OC)cc3C4)c1N2", "=", 0.887],
  ["COc1ccccc1Nc1nc2c([nH]1)c(=O)n(C)c(=O)n2C", ">", 10],
  ["CC(C)C[C@H](NC(=O)CNC(=O)c1cc(Cl)ccc1Cl)B(O)O", "=", 0.101],
  ["Cc1ccc([N+](=O)[O-])cc1S(=O)(=O)Nc1ccc(C2=NN(S(=O)(=O)c3cc([N+](=O)[O-])ccc3C)C(c3ccccc3)C2)cc1 (stereo unspecified)", ">", 100],
  ["CC(C)[N+]([O-])(CCCNc1c2ccccc2nc2cccc([N+](=O)[O-])c12)C(C)C", "=", 2.53],
  ["CCOC(=O)Cc1csc(NC(NC(=O)OCC)(C(=O)OCC)C(F)(F)F)n1 (stereo unspecified)", ">", 100]
]}

###

Tested on: UACC-257 melanoma
EXPERIMENT SUMMARY: NCI tumour cell line growth inhibition, 48 h

{"columns": ["SMILES INPUT", "TGI"],
 "data": [
  ["C[n+]1cccc(NC(=O)c2ccc(NC(=O)C34CCC(C(=O)Nc5ccc(C(=O)Nc6ccc[n+](C)c6)cc5)(CC3)CC4)cc2)c1", "> 100 µM"],
  ["O=c1c2cc(-c3ccccc3)cnc2sn1-c1ccc(Br)cc1", "> 100 µM"],
  ["O=C(NCCCCN1CCOCC1)c1cc2ccccc2o1", "> 100 µM"],
  ["Fc1ccc(-c2c(-c3ccncc3)nc3n2CCS3)cc1", "> 25 µM"]
]}

###

Tested on: RPMI-8226 leukemia
EXPERIMENT SUMMARY: NCI tumour cell line growth inhibition, 48 h
Entries and their TGI
READOUT LABEL: TGI

{"columns": ["COMPOUND", "TESTED ON", "READOUT LABEL", "TEST RESULT"],
 "data": [
  ["NNC(=O)C(=O)N/N=C(\\CCCC(=O)Nc1ccc(Cl)cc1)CC(=O)c1ccc(F)cc1", "RPMI-8226 leukemia", "TGI", "> 100 µM"],
  ["Cc1nc([N+](=O)[O-])cn1-c1nc2ccccn2c1[N+](=O)[O-]", "RPMI-8226 leukemia", "TGI", "> 100 µM"],
  ["CC1=NN(c2cccc(Cl)c2)C2(SCC(=O)N2c2nc3ccccc3s2)C1=CC=Cc1ccccc1 (stereo not drawn)", "RPMI-8226 leukemia", "TGI", "> 100 µM"]
]}

###

System: HT29 colon
EXPERIMENT SUMMARY: NCI tumour cell line growth inhibition, 48 h
# TGI values compiled below
READOUT LABEL: TGI

{"columns": ["COMPOUND", "TEST RESULT"],
 "data": [
  ["N#CC(c1ccccc1)N(CCCCCCN(C(=O)c1ccccc1)C(C#N)c1ccccc1)C(=O)c1ccccc1 (stereo not drawn)", "> 100 µM"],
  ["N#C/C(=C\\c1ccc(F)cc1)c1nc(-c2cc3ccccc3oc2=O)cs1", "> 100 µM"],
  ["O=C(CN(/C=C/C(=O)C(F)(F)F)c1ccc(Cl)cc1)c1ccc(Cl)cc1", "> 100 µM"]
]}

###

Tested on: HOP-62 NSCLC
EXPERIMENT SUMMARY: NCI tumour cell line growth inhibition, 48 h
Quick rule for you: TGI at 30 µM or higher means met, lower means not met.

{"columns": ["COMPOUND", "CATEGORY"],
 "data": [
  ["C[C@H](C1CC(C)(O)C(C)(O)C(O)O1)[C@H]1CC[C@H]2[C@@H]3[C@@H]4O[C@@H]4[C@@]4(O)CC=CC(=O)[C@]4(C)[C@H]3CC[C@]12C (some centres not stated)", "met"],
  ["C=CN(C(=O)N1CCN(c2cc3c(cc2F)c(=O)c(C(=O)O)cn3C2CC2)CC1)c1nc(-c2ccc(OC)cc2)cs1", "met"],
  ["O=C1N[C@@H]2[C@@H](O)[C@@H](O)[C@H](O)C[C@H]2c2cc3c(c(O)c21)OCCO3", "not met"],
  ["Cc1cnc2ccc(C)c([N+](=O)[O-])c2c1NCCCN(C)C", "met"],
  ["CC(=O)Nc1ccc2c3c(cc(O)c2c1)N(C(=O)CCCC(=O)N1CC(CCl)c2c1cc(O)c1cc(NC(C)=O)ccc21)CC3CCl (configuration not stated)", "not met"],
  ["COc1ccc2c3c1OC1C(F)C=CC4(O)C(C2)NCCC314 (configuration not stated)", "not met"],
  ["CC(=O)OCCn1cnc2c(NCC=C(C)C)ncnc21", "met"],
  ["COC(=O)c1c([N+](=O)[O-])ncn1[C@H]1OC[C@@H](OC(C)=O)[C@@H](OC(C)=O)[C@@H]1OC(C)=O", "met"],
  ["CN=C1Nc2ccccc2C(=O)N2CSCC12 (configuration not stated)", "met"],
  ["COc1cc2cc(OC(C)=O)c3cc4c(cc3c2c(OC)c1OC)OCO4", "met"],
  ["COc1ccc(C(=O)C(CN(C)C)CN(C)C)cc1", "met"]
]}
